Reference source for all entries: paper PMC9597602

tested on: HEK-293 human embryonic kidney cells ATCC CRL-1573; conditions: read-out: HEK293 CC50; ranges obtained upon retesting, new batch
Attribute: CC50

Known results for compounds:
Compound	Assay target	Assay result
O=C([O][Ag])c1ccc(N2N=C(/C=C/C=C/c3ccccc3)CC2/C=C/c2ccccc2)cc1.O=C([O][Ag])c1ccc(N2N=C(/C=C/C=C/c3ccccc3)CC2/C=C/c2ccccc2)cc1 (racemic)	HEK-293 human embryonic kidney cells ATCC CRL-1573	6 to 7 µM
C1=CCCC=CCC1.[I][Pt][I]	HEK-293 human embryonic kidney cells ATCC CRL-1573	> 100 µM
CC(=NN=C(N)[S-])C(C)=NN=C(N)[S-].O=[N+]([O-])[O-].[Co+3].c1c[nH]cn1.c1c[nH]cn1	HEK-293 human embryonic kidney cells ATCC CRL-1573	> 100 µM
COc1ccc(/C=C/C2=NN(c3ccc(C(=O)[O][Ag])cc3)C(c3ccc(OC)c(OC)c3)C2)cc1OC.COc1ccc(/C=C/C2=NN(c3ccc(C(=O)[O][Ag])cc3)C(c3ccc(OC)c(OC)c3)C2)cc1OC (racemic)	HEK-293 human embryonic kidney cells ATCC CRL-1573	3 to 4 µM
C1=CCCC=CCC1.[Cl][Pt][Cl]	HEK-293 human embryonic kidney cells ATCC CRL-1573	> 100 µM

Next, consider the following compound.
Need CC50 of "c1ccc([PH]([Au][S]c2ccccn2)(c2ccccc2)c2ccccc2)cc1" , thanks.
0.8 to 200 µM

###

test system: Candida glabrata ATCC 90030 NCCLS 84; experiment: Antifungal MIC assay, extended panel; type: cell-based; conditions: extended panel; 50% inhibition, MIC score 2
Listed next: entries and their corresponding MIC50 Candida glabrata ATCC 90030.

Bench note: what MIC50 Candida glabrata ATCC 90030 did "Cc1ccc2ccc3ccc(C)nc3c2n1.Cc1ccc2ccc3ccc(C)nc3c2n1.O=C([O][Eu]([O]C(=O)c1ccccc1F)[O]C(=O)c1ccccc1F)c1ccccc1F" show?
0.012 to 0.049 µM

###

tested on: Candida auris CBS10913 JCM 15448; assay: Antifungal MIC assay, extended panel; assay type: cell-based; settings: Candidozyma auris; comparator antifungals; ≥80% inhibition; converted with MW of Table S12; read-out: MIC* Candida auris CBS10913
Starred links: 1 amine or outer side, 2 acyl side, 3 side chain; linkers in the order of their positions; H or OH if unused. Positions of bridges follow the written chain, without caps; N, C: chain ends. Non-standard residues stand in square brackets, D forms with d. Residues, ends and D or L forms follow the SMILES beside them. *: point of attachment. pTerphenylCO(4''-OnC5H11) = CCCCCOc1ccc(-c2ccc(-c3ccc(C(=O)*)cc3)cc2)cc1; Orn(4R-OH,5R-OH) = O=C([C@H](C[C@@H](O)[C@@H](O)N[*:3])N[*:1])[*:2]; hTyr(3S-OH,4S-OH) = N[C@H](C(=O)O)[C@H](O)[C@@H](O)c1ccc(O)cc1; Pro(3S-OH,4S-Me) = C[C@H]1CN[C@H](C(=O)O)[C@H]1O; Hyp = O=C(O)[C@@H]1C[C@@H](O)CN1
MIC values for the compounds below.

Compound	Assay result
Nc1nc(=O)[nH]cc1F [5-Fluorocytosine, reference compound]	≤ 0.021 µM

Consider the compound shown here: CCCCCOc1ccc(-c2ccc(-c3ccc(C(=O)N[C@H]4C[C@@H](O)[C@@H](O)NC(=O)[C@@H]5[C@@H](O)[C@@H](C)CN5C(=O)[C@H]([C@@H](C)O)NC(=O)[C@H]([C@H](O)[C@@H](O)c5ccc(O)cc5)NC(=O)[C@@H]5C[C@@H](O)CN5C(=O)[C@H]([C@@H](C)O)NC4=O)cc3)cc2)cc1 [Anidulafungin, reference compound] ({pTerphenylCO(4''-OnC5H11)}-[Orn(4R-OH,5R-OH)]T[Hyp][hTyr(3S-OH,4S-OH)]T[Pro(3S-OH,4S-Me)]; lactam 1-C) What is its recorded MIC?
0.027 to 0.11 µM

Now try CC[C@H](C)C[C@H](C)CCCCCCCCC(=O)N[C@H]1C[C@@H](O)[C@@H](NCCN)NC(=O)[C@@H]2[C@@H](O)CCN2C(=O)[C@H]([C@H](O)CCN)NC(=O)[C@H]([C@H](O)[C@@H](O)c2ccc(O)cc2)NC(=O)[C@@H]2C[C@@H](O)CN2C(=O)[C@H]([C@@H](C)O)NC1=O [Caspofungin, reference compound] .
5.72 µM

Also check C[C@@H]1[C@H](O)[C@@H](C)/C=C/C=C/C=C/C=C/C=C/C=C/C=C/[C@H](O[C@@H]2O[C@H](C)[C@@H](O)[C@H](N)[C@@H]2O)C[C@@H]2O[C@](O)(C[C@@H](O)C[C@@H](O)[C@H](O)CC[C@@H](O)C[C@@H](O)CC(=O)O[C@H]1C)C[C@H](O)[C@H]2C(=O)O [Amphotericin B, reference compound]
24.5 µM

Do the same for CC[C@@H]([C@H](C)O)n1ncn(-c2ccc(N3CCN(c4ccc(OC[C@@H]5CO[C@@](Cn6cncn6)(c6ccc(F)cc6F)C5)cc4)CC3)cc2)c1=O [Posaconazole, reference compound] please
0.063 to 0.126 µM

Same question, CCC(C)n1ncn(-c2ccc(N3CCN(c4ccc(OCC5COC(Cn6cncn6)(c6ccc(Cl)cc6Cl)O5)cc4)CC3)cc2)c1=O (stereo not drawn) [Itraconazole, reference compound] this time
0.089 µM

Another compound to look at: C[C@@H](c1ncncc1F)[C@](O)(Cn1cncn1)c1ccc(F)cc1F [Voriconazole, reference compound]
0.016 to 0.032 µM

Next entry: OC(Cn1cncn1)(Cn1cncn1)c1ccc(F)cc1F [Fluconazole, reference compound]
≤ 0.018 µM

Next compound up: CC(=O)N1CCN(c2ccc(OCC3COC(Cn4ccnc4)(c4ccc(Cl)cc4Cl)O3)cc2)CC1 (stereo not drawn) [Ketoconazole, reference compound]
0.01 to 0.042 µM
